test system: 293T cells; assay: Cell survival rate determination (CCK-8); type: cell-based; conditions: cell survival rate of YK-101 minus that of named substance
We label by threshold. Values of cell survival rate lower than that of YK-101 strictly beneath 30% are Yes. Values of 30% and up are No.

Examples with answers:
CCCCCCCCCCOC(=O)CCCN(CCCO)CCCCCC(=O)OCCC(CCCCCC)CCCCCC [YK-102]; No
CCCCCCCCCCOC(=O)CCCN(CCCCCC(=O)OCCC(CCCCCC)CCCCCC)CC(O)CO (centres unmarked) [YK-114]; Yes
CCCCCCCCC(CCCCCCCC)OC(=O)CCCCCCCN(CCO)CCCCCCCC(=O)OCCC(CCCCCC)CCCCCC [Compound 21, reference compound]; Yes

--- query ---
Incoming: Strictly below 30%: is that where cell survival rate lower than that of YK-101 of CCCCCCCCCCOC(=O)CCCN(CCCCCC(=O)OCCC(CCCCCC)CCCCCC)C[C@@H](O)CO [YK-115] sits?
Outgoing: No

====

What Ratio relative to SM-102 was measured for each of the following?
tested on: 293T cells; assay: Fluorescent detection of Fluc-mRNA (cell transfection efficiency of LNP formulations); format: cell-based; conditions: RLU of named substance / RLU of SM-102
Answers are plain numbers.

CCCCCCC(CCCCCC)CCOC(=O)CCCCCCCN(CCO)CCCCCCCC(=O)OCCC(CCCCCC)CCCCCC [Compound 23, reference compound]; 0.84
CCCCCCCCCCOC(=O)CCCN(CCCCCC(=O)OCCC(CCCCCC)CCCCCC)CCOCCO [YK-123]; 0.53
CCCCCCCCCCOC(=O)CCCN(CCCCCC(=O)OCCC(CCCCCC)CCCCCC)C[C@@H](O)CO [YK-115]; 0.93
CCCCCCCCCCCOC(=O)CCCCCN(CCO)CCCCCCCC(=O)OC(CCCCCCCC)CCCCCCCC [SM-102, reference compound]; 1.00

// below: Ratio relative to SM-102 requested for another compound
The value of Ratio relative to SM-102 measured for the compound CCCCCCCCCCCCC(O)CN(C)CCCCCC(=O)OCC(CCCCCC)CCCCCCCC (centres unmarked) [HHMA, reference compound] turned out to be 1.33

====

test system: 293T cells; assay: Cell survival rate determination (CCK-8); type: cell-based; details: cell survival rate of YK-107 minus that of named substance
Provide the recorded cell survival rate lower than that of YK-107 for the entries that follow.
One number for each entry, in %.

CCCCCCC(CCCCCC)CCOC(=O)CCCCCCCN(CCO)CCCCCCCC(=O)OCCC(CCCCCC)CCCCCC [Compound 23, reference compound]; 19.54
CCCCCCCCCCOC(=O)CCCN(CCCCCC(=O)OCCC(CCCCCC)CCCCCC)CCOCCO; 13.77
CCCCCCCCCCOC(=O)CCCN(CCO)CCCCCCOC(=O)CC(CCCCCC)CCCCCC; 11.87
CCCCCCCCCCOC(=O)CCCN(CCO)CCCCC(=O)OCCC(CCCCCC)CCCCCC; 16.90

Continue with the next compound.
Known value: 293T cells cell survival rate lower than that of YK-107 of the compound CCCCCCCCCCCCC(O)CN(C)CCCCCC(=O)OCC(CCCCCC)CCCCCCCC (centres unmarked) [HHMA, reference compound] equals 22.68
